Target: C334ACYP101 (Pseudomonas putida, UniProt P00183, C335A)
Sequence (P00183 whole entry C335A): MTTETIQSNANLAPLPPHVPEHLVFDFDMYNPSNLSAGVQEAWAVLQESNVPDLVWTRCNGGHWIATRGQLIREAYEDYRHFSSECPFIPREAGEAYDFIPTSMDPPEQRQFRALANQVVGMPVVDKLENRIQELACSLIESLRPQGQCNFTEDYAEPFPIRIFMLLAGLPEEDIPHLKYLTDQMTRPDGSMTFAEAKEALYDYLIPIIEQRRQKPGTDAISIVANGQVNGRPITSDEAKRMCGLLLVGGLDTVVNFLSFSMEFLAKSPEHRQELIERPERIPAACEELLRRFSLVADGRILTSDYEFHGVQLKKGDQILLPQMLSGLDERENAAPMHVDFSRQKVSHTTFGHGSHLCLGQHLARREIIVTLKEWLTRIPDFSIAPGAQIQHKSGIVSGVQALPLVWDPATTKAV
Experiment: biochemical
Format: binding
Settings: KD^APP Transient
endpoint name: Kd (µM)
One number for each entry, in µM.

Consider CC12CCC(CC1=O)C2(C)C (stereo not shown) [Cam, Camphor] . Its measured Kd is 5

###

Biological target: CYP2B4 (Oryctolagus cuniculus)
Sequence (P00178 whole entry): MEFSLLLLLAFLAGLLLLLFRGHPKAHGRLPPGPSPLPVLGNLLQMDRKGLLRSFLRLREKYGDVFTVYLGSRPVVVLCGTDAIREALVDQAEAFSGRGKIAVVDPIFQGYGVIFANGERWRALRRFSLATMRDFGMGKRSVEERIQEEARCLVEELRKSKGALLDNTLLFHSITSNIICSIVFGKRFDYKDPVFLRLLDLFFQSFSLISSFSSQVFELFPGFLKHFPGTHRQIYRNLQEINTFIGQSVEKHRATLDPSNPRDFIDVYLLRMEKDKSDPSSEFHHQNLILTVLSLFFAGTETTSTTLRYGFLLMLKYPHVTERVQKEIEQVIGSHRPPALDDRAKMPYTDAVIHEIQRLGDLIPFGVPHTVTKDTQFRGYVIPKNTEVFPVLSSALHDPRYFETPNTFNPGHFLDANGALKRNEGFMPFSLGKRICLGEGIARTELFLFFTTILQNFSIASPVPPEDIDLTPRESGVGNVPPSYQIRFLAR
Conditions: pH 7.4
endpoint name: Kd (µM)
Give bare numbers, in µM.

Form: molecule = C[C@H](Cc1ccccc1)NCc1ccccc1 ; Kd = 701

###

Molecular target: C334ACYP101 (Pseudomonas putida, UniProt P00183, C335A)
Assay: biochemical
Format: binding
Settings: KD^APP Transient, C334ACYP101; 10-13°C jump; 0.05 M K-PO4 buffer + 0.1 M KCl
endpoint name: pKd
Numbers only, as −log10 of the molar value.

Value of pKd reported for the molecule O=C1C2CC3CC(C2)CC1C3 is 5.22
